Measured On: E129V mutant human TP receptor (Homo sapiens, UniProt P21731, E129V)
Construct: expressed in transfected cells; host or cells: HEK293
Sequence (P21731 whole entry E129V): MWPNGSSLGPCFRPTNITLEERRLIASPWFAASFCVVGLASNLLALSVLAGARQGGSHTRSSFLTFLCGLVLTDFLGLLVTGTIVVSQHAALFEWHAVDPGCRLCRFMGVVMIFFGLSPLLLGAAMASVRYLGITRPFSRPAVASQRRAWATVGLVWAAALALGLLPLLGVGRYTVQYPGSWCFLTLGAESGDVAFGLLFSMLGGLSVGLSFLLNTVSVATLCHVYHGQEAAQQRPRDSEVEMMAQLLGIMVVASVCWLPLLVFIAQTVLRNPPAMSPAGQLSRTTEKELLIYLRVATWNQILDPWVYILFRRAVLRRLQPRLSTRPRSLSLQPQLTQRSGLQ
Experimental Details: BRET2 measurement of Gq protein activation, E129V mutant
Assay type: cell-based
Conditions: HEK293 cells, E129V, Gαq-Rluc8/GFP10-Gγ2/Gβ1, 2 min ligand; value ±%CV
Form field: EC50 (one value per entry).

Compound: CCCCC[C@H](O)/C=C/[C@@H]1[C@@H](C/C=C\CCCC(=O)O)[C@H]2CO[C@@H]1C2 (relative stereo)
EC50 (nM): 4.53

Compound: CCCCC[C@H](O)/C=C/[C@@H]1[C@H](C/C=C\CCCC(=O)O)[C@@H](O)C[C@H]1O
EC50 (nM): 404

Compound: CCCCC[C@H](O)/C=C/[C@H]1[C@H](O)CC(=O)[C@H]1C/C=C\CCCC(=O)O [8-isoPGE2, 8-iso Prostaglandin E2]
EC50 (nM): 485

Compound: O=C(O)CCCC=CCC1C2CCC(O2)C1C=CC(O)COc1ccc(I)cc1 (stereo not shown)
EC50 (nM): 3.96

* * *

Measured On: WT human TP receptor (Homo sapiens, UniProt P21731)
Construct: expressed in transfected cells; host or cells: HEK293
Sequence (P21731 whole entry): as the sequence (P21731 whole entry E129V) above, with V129E counted along it
Experimental Details: BRET2 measurement of Gq protein activation, WT receptor
Assay type: cell-based
Conditions: HEK293 cells, Gαq-Rluc8/GFP10-Gγ2/Gβ1, 2 min ligand, value ±%CV
Excerpt: HEK 293 cells were co-transfected with vectors expressing the GFP^10-Gγ2, Gβ1, Gαq-Rluc8 and WT or E129V mutant of TP receptor to investigate direct G protein activation with an intramolecular bioluminescent resonance energy transfer (BRET^2) strategy. […] Total fluorescence and luminescence were directly determined in an aliquot of the transfected cells using an Infinite F500 microplate reader (Tecan, Milan, Italy) as previously described. […]
pEC50: −log10 of the molar value.
Value Type: pEC50

Molecule: CCCCC[C@H](O)/C=C/[C@@H]1[C@H](C/C=C\CCCC(=O)O)[C@@H](O)C[C@H]1O
Value Type: pEC50
Numeric Value: 5.40

Molecule: CCCCC[C@H](O)/C=C/[C@@H]1[C@@H](C/C=C\CCCC(=O)O)[C@H]2CO[C@@H]1C2 (relative stereo)
Value Type: pEC50
Numeric Value: 6.46

Molecule: O=C(O)CCCC=CCC1C2CCC(O2)C1C=CC(O)COc1ccc(I)cc1 (stereo not shown)
Value Type: pEC50
Numeric Value: 7.89

Molecule: CCCCC[C@H](O)/C=C/[C@H]1[C@H](O)CC(=O)[C@H]1C/C=C\CCCC(=O)O [8-isoPGE2, 8-iso Prostaglandin E2]
Value Type: pEC50
Numeric Value: 5.70

* * *

Measured On: WT human TP receptor (Homo sapiens, UniProt P21731)
Construct: expressed in transfected cells; host or cells: HEK293
Experimental Details: Total inositol phosphate (IP) accumulation, WT receptor
Format: cell-based
Conditions: HEK293 cells, Gαq overexpression (5x), 30 min
pEC50: −log10 of the molar value.

Compound: CCCCC[C@H](O)/C=C/C1CC2CC(C1C/C=C\CCCC(=O)O)C2(C)C (stereo partly shown)
pEC50: 5.84

* * *

Measured On: double mutant E129V/E240V of human TP receptor (Homo sapiens, UniProt P21731, E129V/E240V)
Sequence (P21731 whole entry E129V/E240V): as the sequence (P21731 whole entry E129V) above, with E240V counted along it
Experimental Details: Total inositol phosphate (IP) accumulation, E129V/E240V double mutant, rescue with SQ29,548
Conditions: HEK293 cells, E129V/E240V double mutant after rescue with 1 µM SQ29,548 for 18 h; ±33%CV
pEC50: −log10 of the molar value.
Value Type: pEC50

Compound: CCCCC[C@H](O)/C=C/[C@@H]1[C@@H](C/C=C\CCCC(=O)O)[C@H]2CO[C@@H]1C2 (relative stereo) [U46619]
Measured On: double mutant E129V/E240V of human TP receptor (Homo sapiens, UniProt P21731, E129V/E240V)
Value Type: pEC50
Numeric Value: 8.78

* * *

Measured On: E129V mutant human TP receptor (Homo sapiens, UniProt P21731, E129V)
Construct: expressed in transfected cells; host or cells: HEK293
Experimental Details: Total inositol phosphate (IP) accumulation, E129V mutant
Assay type: cell-based
Conditions: HEK293 cells, E129V, Gαq overexpression (5x), 30 min
pEC50: −log10 of the molar value.

Compound: CCCCC[C@H](O)/C=C/C1CC2CC(C1C/C=C\CCCC(=O)O)C2(C)C (stereo partly shown) [PTA2]
Measured On: E129V mutant human TP receptor (Homo sapiens, UniProt P21731, E129V)
pEC50: 6.13

* * *

Measured On: WT human TP receptor (Homo sapiens)
Construct: expressed in transfected cells; host or cells: HEK293
Experimental Details: Total inositol phosphate (IP) accumulation, WT receptor
Type: cell-based
Conditions: HEK293 cells, 30 min stimulation, value ±%CV
Examples of compounds with documented EC50 follow.

Compound: CCCCC[C@H](O)/C=C/[C@H]1[C@H](O)CC(=O)[C@H]1C/C=C\CCCC(=O)O [8-isoPGE2, 8-iso Prostaglandin E2]
Unit Of Measure: nM
EC50: 1160
--
Compound: O=C(O)CCCC=CCC1C2CCC(O2)C1C=CC(O)COc1ccc(I)cc1 (stereo not shown)
Unit Of Measure: nM
EC50: 25.1
--
Compound: CCCCC[C@H](O)/C=C/[C@@H]1[C@@H](C/C=C\CCCC(=O)O)[C@H]2CO[C@@H]1C2 (relative stereo)
Unit Of Measure: nM
EC50: 98.7
--
Compound: CCCCC[C@H](O)/C=C/[C@@H]1[C@H](C/C=C\CCCC(=O)O)[C@@H](O)C[C@H]1O
Unit Of Measure: nM
EC50: 4000
